Test system: 786-0 renal
EXPERIMENT: NCI tumour cell line growth inhibition, 48 h
# TGI listing for each entry below

Solved cases (5 shown):
CC(=O)c1sc2c(c1OC(=O)c1ccco1)c(=O)n(-c1ccccc1)c(=S)n2-c1ccccc1 ... > 100 µM
c1ccc(-c2cn3c(nc4ccccc43)c(-c3ccccc3)n2)cc1 ... 45.1 µM
NC12CC3CC(C1)CC(C(=O)O)(C3)C2 ... > 100 µM
O=C1N[C@H]2c3c(Cl)sc(Cl)c3[C@@H](O)[C@H]2O1 ... > 100 µM
Cc1c(C)c(C)n(C2OC(CO)C(O)C(O)C2O)c(=S)c1C#N (stereo not given) ... > 100 µM

So the reported TGI for CCOCc1c(C)cc(C)c(C2C(C(=O)c3ccccc3)N3c4ccccc4C=CC3C2(C#N)C(=O)OCC)c1C (stereo not given) , on 786-0 renal, turned out to be > 100 µM

So the reported TGI for C/C(CC(=O)Nc1cc(C)ccc1C)=N\NC(=O)c1ccncc1 , on 786-0 renal, turned out to be > 100 µM

So the reported TGI for Cc1c(C(=O)C/C(=N/NC(=O)C[N+](C)(C)C)C(=O)Nc2ccc(Cl)cc2)[n+](=O)c2ccccc2n1O , on 786-0 renal, turned out to be > 100 µM

So the reported TGI for O=C1c2ccccc2C(=O)N1CCc1ncc[nH]1 , on 786-0 renal, turned out to be > 100 µM

So the reported TGI for O=c1oc2ccccc2cc1-c1csc(Nc2ccc(F)cc2)n1 , on 786-0 renal, turned out to be 3.17 µM

* * *

# TGI listing for each entry below
Test system: KM12 colon
EXPERIMENT: NCI tumour cell line growth inhibition, 48 h
Entry rule: numbers only, all in µM.

CCOCC(=O)N[C@H]1CCc2cc(OC)c(OC)c(OC)c2-c2ccc(OC)c(=O)cc21 ... 0.0334
C=C(C[C@](O)(C(=O)/C=C/c1ccc(Cl)cc1)C(=O)OC)c1ccccc1 ... 4.24
CCCCCCCCn1ccc2cc(NC(=O)Cn3cc(CN4CCCC4)nn3)ccc21 ... 3.98

// below: TGI requested for another molecule
Summary for this molecule, COc1cc2cc(Oc3ccc(NC(=O)Nc4ccc(Cl)c(C(F)(F)F)c4)cc3)c(C)nc2cc1OCCN1CCOCC1 : TGI is 5.3

* * *

System: OVCAR-3 ovarian
EXPERIMENT: NCI tumour cell line growth inhibition, 48 h; in the data active means GI50 below about 0.43 µM; inactive means the rest
Bench note: report the call from active, inactive

// known answers, use as guide
CS(=O)(=O)CCNCc1ccc(-c2ccc3ncnc(Nc4ccc(OCc5ccccc5)cc4)c3c2)o1 ... inactive
CCC[CH2][Sn]1([CH2]CCC)[O]C(=O)CN=Cc2c(ccc3ccccc23)[O]1 ... inactive
CS(=O)(=O)c1ccc(-n2nc(C(F)(F)F)cc2OC2CCCC2)cc1 ... inactive
O=C(Nc1ccncc1)C(=O)c1cn(S(=O)(=O)c2cccc(F)c2)c2ccccc12 ... inactive
CC1(C)OC2=C(CC1Br)C(=O)C(=O)c1ccccc12 (configuration not stated) ... inactive

Which outcome was assigned to O=C1CCC(N2C(=O)c3ccccc3C2=O)C(=O)N1CO (configuration not stated) in this test?
inactive

Which outcome was assigned to OCCCNc1nc(=S)[nH]c2[nH]ncc12 in this test?
inactive

Which outcome was assigned to Nc1nccc(-c2c(-c3ccc(F)cc3)ncn2C2CCC(O)CC2)n1 (configuration not stated) in this test?
inactive

Which outcome was assigned to O=C(O)CCNC1CCCCC1 in this test?
inactive

Which outcome was assigned to COc1ccc(-c2nc(-c3nc4ccc(Cl)cc4[nH]3)c3ccccn23)cc1 in this test?
inactive

Which outcome was assigned to CC/C=C\C[C@@H](O)C/C=C1/C(=O)C=C[C@H]1C/C=C\CCCC(=O)OC in this test?
inactive

Which outcome was assigned to COc1ccc2c(c1)CCCN2c1c2ccccc2nc2ccccc12 in this test?
active
